Entries annotated with measured pEC50
# Tested system: NPR-1 (Caenorhabditis elegans, UniProt Q18534)
# Sequence (Q18534 whole entry): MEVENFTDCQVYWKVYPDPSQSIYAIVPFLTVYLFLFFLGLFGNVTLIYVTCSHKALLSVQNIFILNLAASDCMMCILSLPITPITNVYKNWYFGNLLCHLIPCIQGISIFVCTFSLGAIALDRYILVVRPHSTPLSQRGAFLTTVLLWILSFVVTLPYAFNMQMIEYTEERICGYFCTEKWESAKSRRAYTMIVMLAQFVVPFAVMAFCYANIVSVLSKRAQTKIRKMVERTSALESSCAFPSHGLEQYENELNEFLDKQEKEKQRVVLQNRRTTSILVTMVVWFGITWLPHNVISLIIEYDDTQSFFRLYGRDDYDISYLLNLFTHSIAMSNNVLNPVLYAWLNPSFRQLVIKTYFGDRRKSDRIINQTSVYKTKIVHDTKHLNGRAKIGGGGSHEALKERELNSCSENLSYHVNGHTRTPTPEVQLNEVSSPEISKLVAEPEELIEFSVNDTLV
# Assay comment: cAMP reporter gene assay, Gi/o (inhibition of forskolin-induced cAMP), NPR-1
# Type: cell-based, C. elegans
# Set-up: host or cells: HEK293
# Measurement setup: SEM
Ends that are not written are not given here.
Units for pEC50: none; it is -log10 of a concentration expressed in mol/L.

In [3]: df
Out[3]:
              substance  numeric_result
0  KHEYLRF-NH2 [FLP-14]            7.60

For the next question, use this substance.
Per the records, this substance ( RGPSGPLRF-NH2 [FLP-15-2] ) has pEC50 equal to 7.60

====

# Tested system: NPR-11 (Caenorhabditis elegans, UniProt Q18179)
# Construct: expressed in transfected cells; host or cells: HEK293, transient
# Sequence (Q18179 whole entry): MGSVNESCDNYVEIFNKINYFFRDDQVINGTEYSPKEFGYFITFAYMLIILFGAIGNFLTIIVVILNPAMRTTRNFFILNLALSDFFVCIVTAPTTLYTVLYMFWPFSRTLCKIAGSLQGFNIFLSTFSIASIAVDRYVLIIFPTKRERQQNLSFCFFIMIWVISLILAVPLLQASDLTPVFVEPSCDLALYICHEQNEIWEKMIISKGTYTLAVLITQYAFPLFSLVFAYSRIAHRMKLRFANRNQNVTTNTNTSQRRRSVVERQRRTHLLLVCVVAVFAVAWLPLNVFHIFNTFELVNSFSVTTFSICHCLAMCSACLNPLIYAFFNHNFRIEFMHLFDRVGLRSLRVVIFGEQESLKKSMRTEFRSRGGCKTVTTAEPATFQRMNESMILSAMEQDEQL
# Assay comment: cAMP reporter gene assay, Gi/o (inhibition of forskolin-induced cAMP), NPR-11
# Format: cell-based, C. elegans
# Measurement setup: HEK293, read-out: Emax ± SEM [%]; SEM
Ends that are not written are not given here.
Experimental endpoint: Emax (%)
Value expressed in %; do not type the unit.

Observe how each entry below is paired with its result.
>>> df
                            substance  numeric_result
0  ALNRDSLVASLNNAERLRF-NH2 [FLP-34-2]           -0.65
1                KHEYLRF-NH2 [FLP-14]           -0.86
2   ADISTFASAINNAGRLRY-NH2 [FLP-34-1]           -0.62
3            RGPSGPLRF-NH2 [FLP-15-2]           -0.76
4            SEVPGVLRF-NH2 [FLP-18-5]           -0.16

Per the records, this substance ( GLGPRPLRF-NH2 [FLP-21] ) has Emax equal to -0.72

====

# Tested system: NPR-5b (Caenorhabditis elegans)
# Sequence (Q6F3C9 1-433): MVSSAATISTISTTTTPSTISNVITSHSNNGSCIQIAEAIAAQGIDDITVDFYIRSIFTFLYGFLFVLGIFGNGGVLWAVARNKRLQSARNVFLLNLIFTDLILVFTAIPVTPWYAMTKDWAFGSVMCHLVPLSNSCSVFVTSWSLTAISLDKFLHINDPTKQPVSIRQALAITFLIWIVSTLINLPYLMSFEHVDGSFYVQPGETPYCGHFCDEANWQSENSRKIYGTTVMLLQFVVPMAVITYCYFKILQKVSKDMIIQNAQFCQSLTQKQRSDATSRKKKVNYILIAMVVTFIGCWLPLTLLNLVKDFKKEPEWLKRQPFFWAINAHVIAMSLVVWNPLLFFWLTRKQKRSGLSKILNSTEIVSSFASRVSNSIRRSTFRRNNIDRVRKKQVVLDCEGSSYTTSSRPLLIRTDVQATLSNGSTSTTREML
# Assay comment: cAMP reporter gene assay, Gi/o (with forskolin), NPR-5b
# Assay type: cell-based, C. elegans
# Measurement setup: 0.1 µM peptide; 1 µM forskolin set to 1.00; values > 1 = cAMP stimulation; transiently transfected HEK293 cells; mean of at least three independent experiments
Entries annotated with measured cAMP, x-fold of forskolin (mean), NPR-5b

>>> df
                                  substance                    result
0  APLEGFEDMSGFLRTIDGIQKPRF-NH2 [FLP-33, NPY-like C. elegans FLP with C-terminal RxRF/Ya signature]  0.79 x-fold of forskolin
1  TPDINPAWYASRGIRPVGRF-NH2 [PrRP20, human prolactin-releasing peptide, 20 residues, reference compound]  0.90 x-fold of forskolin
2  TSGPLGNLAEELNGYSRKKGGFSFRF-NH2 [QRFP26, human pyroglutamylated RFamide peptide, 26 residues, reference compound]  0.84 x-fold of forskolin

Per the records, this substance ( ASPSFIRF-NH2 [FLP-4-2, C. elegans FMRFamide-like peptide, C-terminally amidated, synthesized by SPPS] ) has cAMP, x-fold of forskolin (mean), NPR-5b equal to 0.90 x-fold of forskolin

Per the records, this substance ( AGSDPNFLRF-NH2 [FLP-1-2, C. elegans FMRFamide-like peptide, C-terminally amidated, synthesized by SPPS] ) has cAMP, x-fold of forskolin (mean), NPR-5b equal to 1.02 x-fold of forskolin

Per the records, this substance ( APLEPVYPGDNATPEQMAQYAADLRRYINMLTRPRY-NH2 [PP, human pancreatic polypeptide, reference compound] ) has cAMP, x-fold of forskolin (mean), NPR-5b equal to 0.86 x-fold of forskolin

Per the records, this substance ( APKPKFIRF-NH2 [FLP-5-1, C. elegans FMRFamide-like peptide, C-terminally amidated, synthesized by SPPS] ) has cAMP, x-fold of forskolin (mean), NPR-5b equal to 0.91 x-fold of forskolin

Per the records, this substance ( NPENDTPFGTMRF-NH2 [FLP-3-4, C. elegans FMRFamide-like peptide, C-terminally amidated, synthesized by SPPS] ) has cAMP, x-fold of forskolin (mean), NPR-5b equal to 1.10 x-fold of forskolin

Per the records, this substance ( EASAFGDIIGELKGKGLGGRMRF-NH2 [FLP-27, NPY-like C. elegans FLP with C-terminal RxRF/Ya signature] ) has cAMP, x-fold of forskolin (mean), NPR-5b equal to 0.88 x-fold of forskolin

Source: paper PMC6751662
